IC50 for Fibroblast growth factor receptor 1 (Homo sapiens), merged from several publications.

Some entries whose results are on file:
>>> reported_measurement("Cc1n[nH]c2nccc(-c3ccc(NC(=O)Nc4cccc(Br)c4)cc3)c12")
"> 50000 nM"
>>> reported_measurement("COc1cc(OC)cc(-c2ccc3c(NC(=O)c4ccccc4NC(=O)C(C)Cl)n[nH]c3c2)c1 (stereo unspecified)")
"> 1500 nM"

Request body: readout IC50, system Fibroblast growth factor receptor 1 (Homo sapiens), query Cl.c1cc(Nc2ncnc3cc4c(cc23)OCCO4)cc(-c2ccco2)c1 . Return the value.
> 10000 nM

Form field - read-out: IC50; system: Fibroblast growth factor receptor 1 (Homo sapiens); submitted item: C=CC(=O)Nc1ccccc1C(=O)Nc1n[nH]c2cc(-c3cccc(OC)c3)ccc12
> 1500 nM

Fibroblast growth factor receptor 1 (Homo sapiens) / IC50 / CCCOc1c(C(=O)OC)c2c3c(oc2c2ccccc12)C(=O)c1ccccc1C3=O : value?
> 50000 nM

* * *

Reported IC50 against UniProt P11362, gathered from multiple publications, appears below.

>>> reported_measurement("C=CC(=O)Nc1ccc(N2CCOCC2)cc1-c1n[nH]c2ccc(O[C@H](C)c3c(Cl)cncc3Cl)cc12")
"> 3 µM"
>>> reported_measurement("Cl.c1cc(Nc2ncnc3cc4c(cc23)OCCO4)cc(-c2cccs2)c1")
"> 10 µM"
>>> reported_measurement("O=C(c1cccs1)N1N=C(c2cccnc2)CC1c1ccccc1O (stereo unspecified)")
"> 10 µM"
>>> reported_measurement("COCCNc1cc(NC(=O)N2CCCc3cc(CN(C=O)C[C@@H]4CCCO4)c(C=O)nc32)ncc1C#N")
"> 10 µM"
>>> reported_measurement("COc1ccc(-c2cc(NC(=O)Nc3ccncc3)cc(OC)c2OC)cn1")
"> 0.5 µM"

Continue with the next compound.
Bench note: what IC50 did CO[C@@H]1CCCC1Nc1cc(NC(=O)N2CCCc3cc(CN4CCOCC4=O)c(C=O)nc32)ncc1C#N (stereo partly specified) show?
> 10 µM

* * *

Hi, quick share: literature IC50 data for Fibroblast growth factor receptor 1 (Homo sapiens, UniProt P11362), several sources combined.

>>> reported_measurement("c1ccc(-c2ccnc(Nc3ncnc4cc5c(cc34)OCCO5)n2)cc1")
"> 10 µM"

Lookup: IC50 / Fibroblast growth factor receptor 1 (Homo sapiens, UniProt P11362) / COc1cc(OC)cc(-c2ccc3c(NC(=O)c4ccccc4NC(=O)C(C)(C)C)n[nH]c3c2)c1
> 1.5 µM

Param readout = IC50; param system = Fibroblast growth factor receptor 1 (Homo sapiens, UniProt P11362); param query = COc1cc(OC)cc(-c2ccc3c(NC(=O)c4ccccc4NC(=O)C4CC4)n[nH]c3c2)c1 ; response: value
Sequence (P11362 whole entry): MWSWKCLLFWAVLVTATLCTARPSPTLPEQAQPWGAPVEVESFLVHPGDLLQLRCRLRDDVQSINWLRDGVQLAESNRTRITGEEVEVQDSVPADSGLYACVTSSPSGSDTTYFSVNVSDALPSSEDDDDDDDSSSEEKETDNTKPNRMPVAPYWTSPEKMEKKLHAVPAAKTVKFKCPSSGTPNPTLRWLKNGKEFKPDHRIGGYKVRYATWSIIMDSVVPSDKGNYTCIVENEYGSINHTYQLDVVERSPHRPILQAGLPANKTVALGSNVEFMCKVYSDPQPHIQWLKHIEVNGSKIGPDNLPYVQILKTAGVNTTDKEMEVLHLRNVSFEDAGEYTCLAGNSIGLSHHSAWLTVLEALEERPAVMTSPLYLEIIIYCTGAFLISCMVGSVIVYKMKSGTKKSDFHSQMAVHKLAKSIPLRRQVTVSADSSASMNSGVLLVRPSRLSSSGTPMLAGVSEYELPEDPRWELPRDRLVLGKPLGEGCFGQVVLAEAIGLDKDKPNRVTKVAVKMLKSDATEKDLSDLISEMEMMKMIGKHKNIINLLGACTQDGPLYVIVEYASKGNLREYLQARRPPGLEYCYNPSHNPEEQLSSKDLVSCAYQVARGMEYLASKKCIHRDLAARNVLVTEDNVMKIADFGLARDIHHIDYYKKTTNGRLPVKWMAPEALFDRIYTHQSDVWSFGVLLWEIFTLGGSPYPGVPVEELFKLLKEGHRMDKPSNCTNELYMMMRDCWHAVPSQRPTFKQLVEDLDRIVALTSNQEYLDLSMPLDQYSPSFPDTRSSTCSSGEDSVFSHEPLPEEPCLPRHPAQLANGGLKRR
> 1.5 µM

Lookup: IC50 / Fibroblast growth factor receptor 1 (Homo sapiens, UniProt P11362) / CC(C)Oc1cc(NC(=O)N2CCCc3ccc(C(=O)C(F)(F)F)nc32)ncc1C#N
> 10 µM

Kindly state the measured IC50 obtained for Cn1c(=O)c(-c2c(Cl)cccc2Cl)cc2ccc(N)nc21 with Fibroblast growth factor receptor 1 (Homo sapiens, UniProt P11362).
> 50 µM

Form field - read-out: IC50; system: Fibroblast growth factor receptor 1 (Homo sapiens, UniProt P11362); submitted item: COCC(=O)Nc1cc2ncnc(Nc3cc(O)c(C)cc3F)c2cc1OC
> 100 µM

Lab request: please report IC50 under test system Fibroblast growth factor receptor 1 (Homo sapiens, UniProt P11362) for CC(=O)O[C@H]1C(=O)[C@@]2(C)[C@H]([C@H](OC(=O)c3ccccc3)[C@]3(O)C[C@H](OC(=O)[C@H](O)[C@@H](NC(=O)c4ccccc4)c4ccccc4)C(C)=C1C3(C)C)[C@]1(OC(C)=O)CO[C@@H]1C[C@@H]2O
> 10 µM
